I'd appreciate it if you could supply inhibition zone (IZ) values for the items below.
# Test system: Fusarium verticillioides
# test: Antifungal activity against Fusarium moniliforme MTCC 156 after 24 to 48 hrs by agar diffusion method
# Type: functional
One number for each entry, in mm.

The examples below pair each entry with its known result.
1. CCCCc1nc(Cl)c(C2CC(c3cc(Cl)ccc3O)=NN2c2nc(-c3ccc(Cl)cc3)cs2)[nH]1 (centres undefined)	15
2. CCCCc1nc(Cl)c(C2CC(c3cc(Cl)c(C)cc3O)=NN2c2nc(-c3ccc(Cl)cc3)cs2)[nH]1 (centres undefined)	11

Here are 2 compounds. What values of inhibition zone (IZ) were reported for them?
1. CCCCc1nc(Cl)c(C2CC(c3cc(C)cc(Br)c3O)=NN2c2nc(-c3ccc(Cl)cc3)cs2)[nH]1 (centres undefined)
2. CCCCc1nc(Cl)c(C2CC(c3cc(Cl)c(C)c(Br)c3O)=NN2c2nc(-c3ccc(Cl)cc3)cs2)[nH]1 (centres undefined)

[9, 15]

###

Record form. Attribute: MIC. Fill in for each entry.
# System: Trichoderma viride
# test: Antifungal activity against Trichoderma viride MTCC 167 after 24 to 48 hrs by agar diffusion method
# Format: functional
# condition_notes: Trichoderma viride, MTCC 167
One number for each entry, in µg/mL.

1. CCCCc1nc(Cl)c(C2CC(c3cc(C)cc(Br)c3O)=NN2c2nc(-c3ccc(Cl)cc3)cs2)[nH]1 (stereo unspecified)	25

Hi there! I need MIC for each item below, if you can.
1. CCCCc1nc(Cl)c(C2CC(c3cc(Cl)c(C)c(I)c3O)=NN2c2nc(-c3ccc(Cl)cc3)cs2)[nH]1 (stereo unspecified)
2. CCCCc1nc(Cl)c(C2CC(c3cc(C)ccc3O)=NN2c2nc(-c3ccc(Cl)cc3)cs2)[nH]1 (stereo unspecified)

25
50

Dear colleague, could you please provide MIC for the compounds listed below?
1. CCCCc1nc(Cl)c(C2CC(c3ccc(OC)cc3)=NN2c2nc(-c3ccc(Cl)cc3)cs2)[nH]1 (stereo unspecified)
2. CCCCc1nc(Cl)c(C2CC(c3cc(Cl)cc(Cl)c3O)=NN2c2nc(-c3ccc(Cl)cc3)cs2)[nH]1 (stereo unspecified)
3. CCCCc1nc(Cl)c(C2CC(c3ccc(Cl)cc3)=NN2c2nc(-c3ccc(Cl)cc3)cs2)[nH]1 (stereo unspecified)

1. 25
2. 25
3. 50

For every item in the list below, what is its measured MIC?
1. CCCCc1nc(Cl)c(C2CC(c3cc(Cl)ccc3O)=NN2c2nc(-c3ccc(Cl)cc3)cs2)[nH]1 (stereo unspecified)
2. CCCCc1nc(Cl)c(C2CC(c3ccccc3O)=NN2c2nc(-c3ccc(Cl)cc3)cs2)[nH]1 (stereo unspecified)
3. CCCCc1nc(Cl)c(C2CC(c3cc(I)cc(I)c3O)=NN2c2nc(-c3ccc(Cl)cc3)cs2)[nH]1 (stereo unspecified)
4. CCCCc1nc(Cl)c(C2CC(c3ccc(N)cc3)=NN2c2nc(-c3ccc(Cl)cc3)cs2)[nH]1 (stereo unspecified)
5. CCCCc1nc(Cl)c(C2CC(c3cc(Cl)cc(Br)c3O)=NN2c2nc(-c3ccc(Cl)cc3)cs2)[nH]1 (stereo unspecified)
6. CCCCc1nc(Cl)c(C2CC(c3cc(C)cc(I)c3O)=NN2c2nc(-c3ccc(Cl)cc3)cs2)[nH]1 (stereo unspecified)
7. CCCCc1nc(Cl)c(C2CC(c3cc(Cl)cc(I)c3O)=NN2c2nc(-c3ccc(Cl)cc3)cs2)[nH]1 (stereo unspecified)

25
25
25
50
25
25
25
